# maps each entry to its growth
- Tested on: COLO 205 colon
- MEASUREMENT_PROTOCOL: NCI-60 one-dose screen, 48 h (100 = growth as untreated, 0 = no growth, -100 = all killed)
- CONDITION: 10 µM unless noted
This is part of a sample that, as a whole, favours compounds with a hit. Of some 83,000 tested, about 20% had one in any assay.
PARAMETER: growth (%)

* CN1CC(=O)N(O)C1(C)c1cccnc1 (stereo not drawn) | 111
* COc1ccc(/C=C\c2cc(OC)c(OC)c(OC)c2)cc1OCC(=O)Nc1nc2ccc(F)cc2s1 | 32.3
* CCCCCSC1C2C(=O)C(Br)=CC13CCNc1c(O)c4c5c(c13)=[N+]2CCC=5C=N4 (stereo not drawn) | -76.5
* COc1ccc(C(=O)c2cc(OC)c(OC)c(OC)c2)cc1OC(C)=O | 16.3
* CCCOC(=O)N[C@H]1CCc2c(Br)c(OC)c(OC)c(OC)c2-c2ccc(SC)c(=O)cc21 | -31.9
* CC12CCC3C(CCC4Cc5[nH]c6ccccc6c5CC43C)C1CCC2O (stereo not drawn) | 45
* CN(CCCCN(C)CCOS(C)(=O)=O)CCOS(C)(=O)=O | 74.2
* C[C@@]1(CCCCCCCCCc2ccc(O)cc2)C[C@]2(C)OC(=O)C[C@@H]2OO1 | 124
* CC(C)(C)N1CC1C#N (stereo not drawn) | 98.7
* Cc1cc(C)cc(Nc2nc3c(s2)CC[C@@]2(C)C3=CC[C@@H]3[C@@H]2CC[C@]2(C)C(=O)CC[C@@H]32)c1 | 92.5
* CC(=O)Nc1nc2c(s1)CC[C@@]1(C)C2=CC[C@H]2[C@@H]3CC[C@H](O)[C@@]3(C)CC[C@@H]21 | 72.2
* COC(=O)[C@@H](C)C[C@H](Cc1ccccc1)NC(=O)c1csc([C@@H](C[C@H](C(C)C)N(C)C(=O)[C@@H](NC(=O)C23CC(NC(C)=O)(C2)C3)C2CC2)OC(C)=O)n1 | 32.5
* O=C(CCCCCCC(=O)Nc1ccc(N(CCCl)CCCl)cc1)NO | 29.5
* CC(=O)O[C@H](C[C@H](C(C)C)N(C)C(=O)[C@@H](NC(=O)[C@H]1CCCCN1C)C(C)C)c1nc(C(=O)N[C@@H](Cc2ccccc2)C[C@H](C)C(=O)O)c(CCOCc2ccccc2)s1 | -42
* Fc1ccc2c(c1)c(-c1nc(-c3c[nH]c4ncccc34)cs1)cn2CCN1CCOCC1 | 38.4
* C#Cc1ccc2c(c1)C(c1ccccc1F)=NCC(=O)N2C | 18.4
* CCCCN1CCCC[C@@H]1C(=O)N[C@H](C(=O)N(C)[C@H](CCc1nc(C(=O)N[C@@H](Cc2ccccc2)C[C@H](C)C(=O)OC)cs1)C(C)C)[C@@H](C)CC | 22.3
* O=C1C2CCC1C(N1CCCC1)CC2 (stereo not drawn) | 107

====

- Test system: M14 melanoma
- MEASUREMENT_PROTOCOL: NCI-60 one-dose screen, 48 h (100 = growth as untreated, 0 = no growth, -100 = all killed)
- CONDITION: 10 µM unless noted
The panel holds about 83,000 compounds, 20% with a hit somewhere; the sample as a whole holds those more often.
PARAMETER: growth (%)

- CCCCCC1(CCBr)C(=O)NC(=O)NC1=O: 112
- CCCCNC(c1ccc(Cl)cc1)C(O)c1ccc(Cl)cc1 (stereo not drawn): 25.7
- CCCCCCCCCCCCCCCCCCOc1ccccc1COP(=O)(O)OOCC[N+](C)(C)C: -29.1
- O=C1C=C2C(=CCOC2O)O1 (stereo not drawn): -18.9
- COc1ccc(/C=C\c2cc(OC)c(OC)c(OC)c2)cc1OCC(=O)Nc1nc2ccc(OC(F)(F)F)cc2s1: 11.5
- COc1cccc(/C=C/[N+](=O)[O-])c1: 12.3
- COC(=O)CC12CC(NC(=O)c3csc([C@@H](C[C@H](C(C)C)N(C)C(=O)[C@@H](NC(=O)[C@H]4CCCCN4C)C(C)C)OC(C)=O)n3)(C1)C2: 7
- O=C(Nc1ccc(O)cc1)C(Cl)(Cl)Cl: 91.2
- C[C@@H]1C[C@@]2(C)[C@@H](CC[C@@H]3[C@@H]2CC[C@]2(C)C(=O)CC[C@@H]32)CC1=O: 96.9
- CC1=C(CCCNS(C)(=O)=O)C2=C(C)C3(CC3)[C@@](C)(O)C(=O)C2=C1: -51.3
- C=CC1=C[C@@H]2[C@@H]3O[C@]4(CC[C@H](O4)[C@@H](C)C[C@@H](O)C3=O)C[C@H](O)C3=NCC[C@@]32CC1: -79
- Cn1cccc1C1CC(=O)N(CCC[Se]C#N)C1=O (stereo not drawn): 4.09
- O=C1C(Cl)=C(N2CCOCC2)C(=O)c2ccccc21: 105
- CC[C@]12C=CCN3CC[C@@]4(c5ccc(OC)cc5N(C)[C@H]4[C@@](O)(C(=O)OC)[C@@H]1OC(=O)CCCC[P+](c1ccccc1)(c1ccccc1)c1ccccc1)[C@@H]32: 29.4
- CC(=O)O[C@H](C[C@H](C(C)C)N(C)C(=O)[C@@H](NC(=O)[C@H]1CCCCN1C)C(C)C)c1cccc(C(=O)N[C@@H](Cc2ccccc2)C[C@H](C)C(=O)O)n1: 1.68
- COc1cc2c(=O)n(C3CCCCCCC3)c3c4cc[nH]c4ncc3c2cc1OC: 71.4
- CC(=O)Oc1ccccc1C(=O)NCCC[Se]C#N: -13.1
- C/C(=C\c1ccn(-c2ccc(N)c(F)c2)n1)[C@@H]1C[C@@H]2O[C@]2(C)CCC[C@H](C)[C@H](O)[C@@H](C)C(=O)C(C)(C)[C@@H](O)CC(=O)O1: 13.3
